Numbers sourced from PubChem BioAssay (NCI).

Test system: U251 CNS
test.method.notes: NCI-60 one-dose screen, 48 h
test.settings: 10 µM unless noted
Compounds without any hit were thinned out: in the full panel of roughly 83,000, 20% have a hit. Active and inactive are the calls of the source. Rule for the calls: active = growth percent below 10; inactive = the rest.
Assign a class; possible classes are active, inactive

Would you mind telling me which call this test gave `Cc1nc(N=C(N)N)nc2ccc3ccccc3c12` ? active

Dear colleague, could you share the recorded outcome for `O=C(C(=Cc1ccccc1)C(=O)c1ccccc1)c1ccccc1` when you have a moment? inactive

Just curious, what result did `O=C(/C=C/c1cccnc1)c1ccccc1` get here? inactive

I'd appreciate the recorded outcome for `NNc1c2ccccc2nc2ccccc12` from this test. inactive

Assay result, entry `COc1ccc(CC(=O)c2ccc(O)cc2O)cc1` — outcome? inactive

Per the assay record, what outcome was assigned to OC(CN1CCCC2CCCCC21)c1cc2ccccc2c2ccccc12 (stereo not drawn) ? inactive

Answer briefly: the call reported for `CC(C)(C)CC(C)(C)c1ccc(OCCO)cc1` in this assay. inactive

Field: outcome | Entry: `CCCCCCCCCCCC[N+](C)(C)Cc1ccccc1` inactive

Please share the test call associated with CCN(CC)c1ccc(NC(C(=O)c2ccccc2)c2ccccc2)cc1 (stereo not drawn) . active

Could you check what this test reported for `CCN1/C(=C/C=C/C=C/c2sc3ccccc3[n+]2CC)Sc2ccccc21` ? active

Dear all, I need the recorded test outcome for `CCC(C)(C)c1cc(O)c(C(C)(C)CC)cc1O` , thank you. inactive

Record lookup: outcome of this test for `CC[N+](CC)=c1ccc2nc3c(cc(N)c4ccccc43)oc-2c1` ? active

Per the records of this test, what outcome belongs to `CC(=O)Nc1cc(C)ccc1C` ? inactive
